- System: CAKI-1 renal
- procedure summary: NCI tumour cell line growth inhibition, 48 h; in the data active = GI50 below about 0.43 µM; inactive = the rest
Labels: active, inactive

>>> print(df.to_string())
                                        smi  target_entity  assigned_label
0  N.N.O=P([O-])([O-])CN(CCN(CP(=O)([O-])[O-])CP(=O)([O-])[O-])CP(=O)([O-])[O-].[Pt+2]   CAKI-1 renal        inactive
1       CN(C)CCC=C1c2ccccc2C(C)(C)c2ccccc21   CAKI-1 renal        inactive
2  CO[C@]12C=C/C(=C(/C(=O)OCc3cccnc3)C(=O)CCCCCCCC[C@@]3(OC)C=C/C(=C(/C(=O)OCc4cccnc4)C(=O)CCCCCCCC1)O3)O2   CAKI-1 renal        inactive
3  N#Cc1ccsc1NC(=O)COC(=O)c1cccc(S(=O)(=O)N2CCc3ccccc32)c1   CAKI-1 renal        inactive
4  CCCC[n+]1c(/C=C\c2c(OC)cc(OC)cc2OC)ccc2ccccc21   CAKI-1 renal        inactive
5  COc1cc2nc(-c3ccc(Cl)cc3)cc(OCCCN3CCCC3)c2cc1OC   CAKI-1 renal          active
6  O=C(N=Nc1c(O)[nH]c2ccccc12)c1oc2ccccc2c1CN1CCN(c2ccccc2)CC1   CAKI-1 renal        inactive
7  CCN(CC)CCOc1ccc(/C=C2\C[C@H]3[C@H]4CC=C5C[C@@H](O)CC[C@]5(C)[C@H]4CC[C@]3(C)[C@H]2O)cc1OC   CAKI-1 renal        inactive
8          CCN(Cc1ccccc1Cl)c1ccc(CO)c(Cl)c1   CAKI-1 renal        inactive

###

- Test system: NCI/ADR-RES ovarian
- procedure summary: NCI tumour cell line growth inhibition, 48 h
measurement label: TGI (µM)

>>> df
                                        smi  value_qualifier  result
0  C/C(=N\NC(=S)N1CCN(C2CCCCCC2)CC1)c1ccccn1                =   0.676
1                 O=C1CCCCC=C1C[N+](=O)[O-]                >     100
2  CCCCc1ccc(-n2sc3ncc([N+](=O)[O-])cc3c2=O)cc1                =    34.4
3            C=CCc1cc(C=C(C#N)C#N)cc(OC)c1O                >     100
4  CC(C)COC(=O)OC(=O)c1ccc(N(C)Cc2cnc3nc(N)nc(N)c3n2)cc1                >     100
5  O=c1c2cccc(F)c2sc2c(N3CCNCC3)nc3ccccc3c12                =    3.21

###

- Tested on: UO-31 renal
- procedure summary: NCI tumour cell line growth inhibition, 48 h
measurement label: TGI (µM)

In [3]: df
Out[3]:
                                   compound  value_qualifier  result
0  COc1ccc2c(c1)[n+]([O-])c(-c1ccc(Br)cc1)c(N)[n+]2[O-]                >     100
1  COc1cc2oc(-c3ccc(O)cc3O)c(CC=C(C)C)c(=O)c2c(O)c1/C=C/C(C)C                =    8.08
2  O=C(O)C1C2C=CC(C2)C1C(=O)O (stereo not given)                >     100
3  O=C(N=Nc1c(O)[nH]c2ccccc12)c1oc2ccccc2c1CN1CCN(c2ccccc2)CC1                =    2.94
4   O=C1C(Nc2ccc(Br)cc2)=C(I)C(=O)c2ncccc21                =    1.85

###

- System: SW-620 colon
- procedure summary: NCI tumour cell line growth inhibition, 48 h
The reader will find reported GI50 values listed item by item below.
measurement label: GI50

molecule	measurement label	result
CCC(C)[C@H](NC(=O)NC(=O)NC(=O)CI)C(=O)OC (stereo partly drawn)	GI50	1.86 µM
C=C1CC[C@@H]2[C@](C)(COC(C)=O)[C@H](OC(C)=O)CC[C@@]2(C)[C@@H]1CC(Nc1ccc(S(=O)(=O)Nc2cc(C)on2)cc1)C1=CCOC1=O (stereo partly drawn)	GI50	1.32 µM
CC(=O)[CH-]C(=O)c1ccccc1.CC(=O)[CH-]C(=O)c1ccccc1.CC1(C)OCC(C2OC3OC(C)(C)OC3C2[O-])O1.CC1(C)OCC(C2OC3OC(C)(C)OC3C2[O-])O1.[Ti+4] (stereo not drawn)	GI50	10.7 µM
CCN(Cc1ccccc1Cl)c1ccc(CO)c(Cl)c1	GI50	1.61 µM
COC(=O)c1ccc2c(c1)C(=O)c1c-2n(C)c(=O)c2cc(OC)c(OC)cc12	GI50	> 50 µM
COc1cc(/C=C2\Oc3cc(OCCCN4CCCC4)ccc3C2=O)cc(OC)c1	GI50	3.15 µM
NCCCCCCCCCCCn1c2c(c3ccccc3c1=O)C(=O)c1ccccc1-2	GI50	1.96 µM
C=C1CCC2C3(C)COC(c4c(OC)cccc4OC)OC3CCC2(C)C1C/C=C1/C(=O)OCC1O (stereo not drawn)	GI50	1.71 µM

###

- System: HCT-116 colon
- procedure summary: NCI tumour cell line growth inhibition, 48 h
As shown below, each of these compounds has a reported TGI value.
measurement label: TGI

>>> df
                                   compound    result
0  C/C(=N\NS(=O)(=O)c1ccc(C)cc1)c1cc2ccccc2n1C  > 100 µM
1  O=C1C(Cl)C2(CC(/C=C/c3ccccc3O)=NN2c2cccc(S(=O)(=O)O)c2)N1c1nc2ccccc2s1 (stereo not given)     31 µM
2  COc1cc(OC)c2c(=O)c(OC)c(-c3ccc4c(c3)OCO4)oc2c1OC  > 100 µM
3  CN(C)c1ccc(-c2c(C#N)c(O)n(NS(=O)(=O)c3ccccc3)c(=O)c2C#N)cc1  > 100 µM
4  O=C(c1ccco1)c1c(C(F)(F)F)nc2ccc(C(F)(F)F)cc2[n+]1[O-]  > 100 µM
5  CCN1C(=O)/C(=C2\SC(c3ccccc3)(c3ccccc3)c3ccccc32)SC1=S  > 100 µM
6            CNc1cc2nc3cc(NC)c(C)cc3cc2cc1C   1.49 µM
7  Cc1cc2oc(-c3ccccc3)c(C)c(=O)c2c2c1OC(C)(C)S2  > 100 µM
8  CN(C)CC1CCC/C(=C\c2ccc(OC(=O)/C=C/c3ccccc3)cc2)C1=O (stereo not given)    2.8 µM
9                    c1cc(CSSCc2ccncc2)ccn1  > 100 µM

###

- Tested on: RXF-631 renal
- procedure summary: NCI tumour cell line growth inhibition, 48 h
The entries below come with measured TGI values attached.
measurement label: TGI (µM)

>>> df
                                   compound  measurement_label  value_qualifier  result
0  Cc1cc2oc(-c3ccccc3)c(C)c(=O)c2c2c1OC(C)(C)S2                TGI                >     100
1  COC(=O)C1=CC2CC1C(S(=O)(=O)c1ccccc1)C2S(=O)(=O)c1ccccc1 (stereo not drawn)                TGI                =    26.9
2  Cc1cc2c(C(C)C)c(O)c(O)c(C=NCCO)c2c(O)c1-c1c(C)cc2c(C(C)C)c(O)c(O)c(C=NCCO)c2c1O                TGI                =    5.35

###

- Test system: HT29 colon
- procedure summary: NCI tumour cell line growth inhibition, 48 h
measurement label: TGI (µM)

In [3]: df
Out[3]:
                                   molecule  unit_text  value_qualifier  result
0  CO/C(=C/C(=O)C(Cl)(Cl)Cl)CC/C(=C\C(=O)C(Cl)(Cl)Cl)OC         µM                =    85.3
1  CCCCCCCCCCCCCCCC(=O)N[C@H](/C=C/[C@H](O)CCCCCCCCCCCCC)CO         µM                >     100
2  Cc1ccc(N=C2S/C(=C3/CCC=C3N3CCOCC3)N(c3ccc(Cl)cc3)C2=Nc2ccc(C)cc2)cc1         µM                >     100
3  Cn1c2ccccc2c(=O)c2c(O)cc3c(c21)CC(C1(C)CO1)O3 (stereo not given)         µM                =      20
4  COc1cc2oc(-c3ccc(O)cc3O)c(CC=C(C)C)c(=O)c2c(O)c1/C=C/C(C)C         µM                =    5.74
5  COc1ccc2c(Cc3c4ccccc4cc4ccccc34)cncc2c1O         µM                =    33.5
6  O=S1(=O)NC2CCC3NS(=O)(=O)NC4CCC(N1)N4S(=O)(=O)N23 (stereo not given)         µM                >     100
7  C/C(=N\NS(=O)(=O)c1ccc(C)cc1)c1cc2ccccc2n1C         µM                >     100
8  c1ccc(CN2CCC3(CC2)SSC2(CCN(Cc4ccccc4)CC2)SS3)cc1         µM                >     100
9   CCCC(N)C(=O)c1ccccc1 (stereo not given)         µM                >     100
